- test-details: Metabolic stability in human liver microsomes assessed as half life in presence of NADPH by LC-MS/MS analysis
- Assay type: ADME, Microsome
assay-readout: half-life (h)
Respond numerically; units are h and should not be typed.

Recorded results for 3 compounds are shown here.
O=C(Nc1cc(C(F)(F)F)cc(C(F)(F)F)c1)c1cc(Br)c(-c2ccccc2)cc1O    2.65
O=C(Nc1cc(C(F)(F)F)cc(C(F)(F)F)c1)c1cc(Br)ccc1O    0.867
N#Cc1ccc(NC(=O)c2cc3ccccc3cc2O)cc1    0.748

Entry `O=C(Nc1cc(C(F)(F)F)cc(C(F)(F)F)c1)c1ccc(Cl)cc1O` — recorded half-life = 2.65

Entry `N#Cc1ccc(NC(=O)c2ccc3cccnc3c2O)cc1` — recorded half-life = 2.07

Entry O=C(Nc1ccc([N+](=O)[O-])cc1Cl)c1cc(Cl)ccc1O [NICLOSAMIDE] — recorded half-life = 0.35

----------
- System: Jurkat
- test-details: Cytotoxicity against human Jurkat cells incubated for 3 days by CellTiter-Glo luminescent assay
- Type: functional, cell-based
- particulars: 72 h
Listing: IC50 of selected compounds
Respond numerically; units are µM and should not be typed.

Entry `O=C(Nc1cc(C(F)(F)F)cc(C(F)(F)F)c1)c1cc(Br)c(-c2ccccc2)cc1O` — recorded IC50 = 0.68

Entry `O=C(Nc1ccc(Br)c(Cl)c1)c1cc(F)ccc1O` — recorded IC50 = 0.86

Entry `O=C(Nc1ccc(OC(F)(F)F)cc1)c1cc(F)ccc1O` — recorded IC50 = 0.81

Entry `O=C(Nc1ccc(C(F)(F)F)cc1)c1cc(Cl)ccc1O` — recorded IC50 = 0.71

Entry `O=C(Nc1ccc(C(F)(F)F)cc1)c1ccc2cccnc2c1O` — recorded IC50 = 0.55

Entry `O=C(Nc1ccc(C(F)(F)F)c(Cl)c1)c1cc(Cl)ccc1O` — recorded IC50 = 0.69

----------
- test-details: Elimination half life in NSG mouse at 2 mg/kg, iv measured after 7 to 150 mins by LC/MS/MS analysis
- Format: ADME, organism-based
- particulars: in vivo, read-out: beta t1/2 (converted)
Listing: half-life of selected molecules
Respond numerically; units are h and should not be typed.

Recorded results for 2 molecules are shown here.
O=C(Nc1ccc([N+](=O)[O-])cc1Cl)c1cc(Cl)ccc1O [NICLOSAMIDE]    0.56
N#Cc1ccc(NC(=O)c2ccc3cccnc3c2O)cc1    1.39

Read the next record carefully.
Entry `O=C(Nc1cc(C(F)(F)F)cc(C(F)(F)F)c1)c1cc(Br)c(-c2ccccc2)cc1O` — recorded half-life = 2.05

----------
- Test system: Jurkat
- test-details: Cytotoxicity against human Jurkat cells incubated for 3 days by CellTiter-Glo luminescent assay
- Format: functional, cell-based
- particulars: 72 h
assay-readout: IC50 (nM)
Respond numerically; units are nM and should not be typed.

O=C(Nc1ccc(C(F)(F)F)cc1)c1ccc(C(F)(F)F)cc1O    820
O=C(Nc1ccc([N+](=O)[O-])cc1Cl)c1cc(F)ccc1O    530
O=C(Nc1cc(C(F)(F)F)cc(C(F)(F)F)c1)c1cc(F)ccc1O    500

Entry `N#Cc1cc(Cl)ccc1NC(=O)c1ccc2cccnc2c1O` — recorded IC50 = 170

Entry `O=C(Nc1ccc(Cl)c(Cl)c1)c1cc(F)ccc1O` — recorded IC50 = 670

Entry `O=C(Nc1ccc(C(F)(F)F)cc1)c1cc(Br)ccc1O` — recorded IC50 = 620

Entry `O=C(Nc1ccc(C(F)(F)F)cc1)c1cc(F)ccc1O` — recorded IC50 = 580

Entry O=C(Nc1ccc([N+](=O)[O-])cc1Cl)c1cc(Cl)ccc1O [NICLOSAMIDE] — recorded IC50 = 400

Entry `O=C(Nc1cc(Cl)cc(Cl)c1)c1cc(F)ccc1O` — recorded IC50 = 710

Entry `N#Cc1ccc(NC(=O)c2cc(Cl)ccc2O)c(Cl)c1` — recorded IC50 = 620

Entry `O=C(Nc1cc(C(F)(F)F)cc(C(F)(F)F)c1)c1cc(Br)c(F)cc1O` — recorded IC50 = 700

Entry `O=C(Nc1cc(C(F)(F)F)cc(C(F)(F)F)c1)c1cc(Cl)ccc1O` — recorded IC50 = 480

Entry `N#Cc1ccc(NC(=O)c2cc(Br)c3cccnc3c2O)cc1` — recorded IC50 = 230

Entry `O=C(Nc1cc(C(F)(F)F)cc(C(F)(F)F)c1)c1cc(Cl)c(-c2ccccc2)cc1O` — recorded IC50 = 540

Entry `N#Cc1ccc(NC(=O)c2ccc3cccnc3c2O)c(C#N)c1` — recorded IC50 = 270

Entry `O=C(Nc1ccc(Cl)cc1Cl)c1ccc2cccnc2c1O` — recorded IC50 = 430

Entry `O=C(Nc1ccc(C(F)(F)F)cc1)c1cc(Br)c(-c2ccccc2)cc1O` — recorded IC50 = 740

Entry `O=C(Nc1ccc(C(F)(F)F)cc1)c1cc(Br)c(F)cc1O` — recorded IC50 = 880

Entry `O=C(Nc1cc(C(F)(F)F)cc(C(F)(F)F)c1)c1ccc(Cl)cc1O` — recorded IC50 = 570

Entry `N#Cc1ccc(NC(=O)c2ccc3cccnc3c2O)cc1` — recorded IC50 = 180
